- measured_target: T1, human LIV-1 (human, UniProt Q13433 29-755)
- T1 sequence (looked up): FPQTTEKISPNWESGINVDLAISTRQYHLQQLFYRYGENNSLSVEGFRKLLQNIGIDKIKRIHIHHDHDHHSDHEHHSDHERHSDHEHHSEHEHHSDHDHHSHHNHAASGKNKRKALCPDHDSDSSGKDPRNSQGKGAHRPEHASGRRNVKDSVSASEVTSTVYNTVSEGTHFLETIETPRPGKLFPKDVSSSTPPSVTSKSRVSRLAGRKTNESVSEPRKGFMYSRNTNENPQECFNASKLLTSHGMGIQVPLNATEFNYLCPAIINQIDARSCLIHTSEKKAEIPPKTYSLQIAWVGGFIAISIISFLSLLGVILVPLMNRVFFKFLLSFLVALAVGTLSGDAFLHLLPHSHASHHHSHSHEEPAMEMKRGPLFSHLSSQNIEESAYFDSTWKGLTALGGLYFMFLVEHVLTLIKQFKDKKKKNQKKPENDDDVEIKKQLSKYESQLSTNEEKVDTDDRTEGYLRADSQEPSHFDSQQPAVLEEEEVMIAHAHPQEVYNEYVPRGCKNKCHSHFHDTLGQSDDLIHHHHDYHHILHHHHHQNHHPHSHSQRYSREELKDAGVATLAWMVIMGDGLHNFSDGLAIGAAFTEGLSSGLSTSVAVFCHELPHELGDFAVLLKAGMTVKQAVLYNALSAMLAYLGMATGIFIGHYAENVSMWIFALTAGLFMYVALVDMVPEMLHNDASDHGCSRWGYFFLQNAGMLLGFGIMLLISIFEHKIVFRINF
- experiment_notes: cell-based or functional assay
Examples of binders with documented Internalization Top (RFU) follow.
The reply should be a number in RFU, with the unit left off.

These recorded examples may help you get a feel for the data.
binder	Internalization Top (RFU)
127A2B9 (antibody, V domains shown, Tested as chimeric antibody) VH: EVQLQESGPSLVKPSQTLSLTCSVTGDSITSGYWNWIRKLPGNKLEYMGYISYSGSTYYNPSLKSRISITRDTSKNQYYLQLNSVTTEDTATYYCARIYYDYDGYFDVWGAGTTVTVSS VL: DIVMTQAAPSVPVTPGESVSISCRSSKSLLHSNGNTFLYWFLQRPGQSPQLLIYRMSNLASGVPDRFSGSGSGTAFTLRISRVEAEDVGVYYCMQHLEYPYTFGGGTKLEIK	558000
5D6B10 (antibody, V domains shown, Tested as chimeric antibody) VH: QVQLKQSGPGLVQPSQSLSITCTVSGFSLTTYGIHWVRQSPGKGLEWLGVIWTGGTTDYNAAFISRLSISKDNSKSQVFFKMNSLQANDTAIYYCARGPSSYWGQGTLVTVSA VL: DIVMTQSQKFMSTSVGDRVSVTCKASQNVDTNVVWYQQKPGQSPKALIHSASYRYSGVPDRFTGSGSGTDFTLTISNVQSEDLAEYFCQQYNNYPWTFGGGTKLEIK	145000

Alright, here's another binder for you.
Consider the binder 72B12F1 (antibody, V domains shown, Tested as chimeric antibody) VH: EVQLQQSGAELVKPGASVKLSCTASGFNIKDTYMHWVKQRPEQGLEWIGRIDPANGNTKNDPRFQGKATITADTSSNTAYLQLSRLTSEDTAVYYCAGGGITTVVPDHWGQGTTLTVSS VL: DVVMTQTPLSLPVSLGDQASISCRSSQSLVHSNGNTYLQWYLQKPGQSPKLLIYKVSNRFSGVPDRFSGSGSGTDFTLKISRVEAEDLGVYFCSQSTHVPYTFGGGTKLEIK and give its measured Internalization Top (RFU).
353000
